This section lists pKd readings for FK-506 binding protein (FKBP) (Homo sapiens, UniProt P62942).
The scale used: pKd is minus the common logarithm of the concentration in molar units.

// known answers, use as guide
Prompt: What does the data say about its pKd? Entry: O=C(C(=O)N1CCCC[C@H]1C(=O)OCc1ccccc1)c1cccc2ccccc12 [Compound 48]
Completion: 5.70

Prompt: Continue with O=C(C(=O)N1CCCC[C@H]1C(=O)OCc1cccc(Oc2ccccc2)c1)c1ccccc1 [Compound 62]
Completion: 6.82

Prompt: Continue with O=C(C(=O)N1CCCC[C@H]1C(=O)OCCCCc1ccccc1)c1cccc(I)c1 [Compound 82]
Completion: 6.70

Prompt: Continue with COC(=O)C(=O)N1CCCC[C@H]1C(=O)OCCCC1CCCCC1 [Compound 33]
Completion: 4.92

Prompt: Continue with O=C(C(=O)N1CCCC[C@H]1C(=O)OCCCCc1ccccc1)C1CCCCC1 [Compound 98]
Completion: 6.74

Continuing:
Prompt: What does the data say about its pKd? Entry: COc1ccc(C(=O)C(=O)N2CCCC[C@H]2C(=O)OCc2ccccc2)cc1 [Compound 10]
Completion: 5.30

---

This section lists log10(Kd) readings for FK-506 binding protein (FKBP) (Homo sapiens, UniProt P62942).
Reminder: these figures are log10 of reported Kd, in µM before transformation.

Prompt: What does the data say about its log10(Kd)? Entry: C=CCOC(=O)Nc1ccc(CCCOC(=O)[C@@H]2CCCCN2C(=O)C(=O)c2cc(OC)c(OC)c(OC)c2)cc1
Completion: -1.15

Prompt: Continue with COc1cc(C(=O)C(=O)N2CCCC[C@H]2C(=O)OCCCCCC2CCCCC2)cc(OC)c1OC
Completion: -1.10

Prompt: Continue with O=C(C(=O)N1CCCC[C@H]1C(=O)OCc1ccccc1)c1ccc([N+](=O)[O-])cc1
Completion: 2.00

Continuing:
Prompt: What does the data say about its log10(Kd)? Entry: C[C@H](OC(=O)[C@@H]1CCCCN1C(=O)C(=O)c1ccccc1)c1ccccc1
Completion: -0.22

Prompt: Continue with COc1cc(C(=O)C(=O)N2CCCC[C@H]2C(=O)OCCCCc2ccccc2)cc(OC)c1OC
Completion: -1.00

Prompt: Continue with O=C(C(=O)N1CCCC[C@H]1C(=O)OCc1ccccc1)C1CCCCC1
Completion: 0.48

---

- Tested on: PBLs stimulated with JVM human viral transformed B lymphoblastoid cells
- protocol.notes: MLR bioassay JVM: inhibition of proliferation in mixed lymphocyte reaction
- Format: cell-based
- condition.notes: Lymphoblastoid cell, pulsed on day 6, harvested 24 h later
pIC50: −log10 of the molar value.
Here, each record is paired with measured pIC50 data.

// known answers, use as guide
Prompt: What does the data say about its pIC50? Entry: O=C(C(=O)N1CCCC[C@H]1C(=O)OCCCCCCc1ccccc1)c1ccccc1
Completion: < 5.00

Prompt: Continue with O=C(C(=O)N1CCCC[C@H]1C(=O)OCc1ccccc1)c1ccc2ccccc2c1
Completion: < 5.00

Prompt: Continue with CC(C)(C)C(=O)C(=O)N1CCCC[C@H]1C(=O)OCCCCc1ccccc1
Completion: < 5.00

Alright, here's another molecule for you.
Prompt: What does the data say about its pIC50? Entry: O=C(C(=O)N1CCCC[C@H]1C(=O)OCCCCC1CCCCC1)c1ccccc1
Completion: 5.19

---

This section lists pKi readings for FK-506 binding protein (FKBP) (Homo sapiens, UniProt P62942).
The scale used: pKi is minus the common logarithm of the concentration in molar units.

Prompt: What does the data say about its pKi? Entry: C/C(=C\c1ccccc1)COC(=O)[C@@H]1CCCCN1C(=O)C(=O)c1ccccc1 [Compound 23]
Completion: 5.82

Prompt: Continue with O=C(C(=O)N1CCCC[C@H]1C(=O)OCc1ccc(-c2ccccc2)cc1)c1ccccc1 [Compound 58]
Completion: 5.30

Prompt: Continue with CC(C)Oc1cccc(C(=O)C(=O)N2CCCC[C@H]2C(=O)OCc2ccccc2)c1 [Compound 66]
Completion: 6.30

Prompt: Continue with COc1cc(C(=O)C(=O)N2CCCC[C@H]2C(=O)OCCCCCCc2ccccc2)cc(OC)c1OC [Compound 71]
Completion: 7.00

Prompt: Continue with O=C(C(=O)N1CCCC[C@H]1C(=O)OCCCCc1ccccc1)C1CCCCC1 [Compound 98]
Completion: 7.10

Continuing:
Prompt: What does the data say about its pKi? Entry: O=C(C(=O)N1CCCC[C@H]1C(=O)OCc1ccccc1)C1CCCCC1 [Compound 40]
Completion: 5.89

Prompt: Continue with O=C(C(=O)N1CCCC[C@H]1C(=O)OCc1cccc(Oc2ccccc2)c1)c1ccccc1 [Compound 62]
Completion: 7.05

Prompt: Continue with COc1ccc(/C=C/C(=O)N2CCCC[C@H]2C(=O)OCc2ccccc2)cc1 [Compound 112]
Completion: 5.40

Prompt: Continue with COc1cc(C(=O)C(=O)N2CCCC[C@H]2C(=O)OCCCCc2ccc(I)cc2)cc(OC)c1OC [Compound 77]
Completion: 7.80

Prompt: Continue with C[C@@H](OC(=O)[C@@H]1CCCCN1C(=O)C(=O)c1ccccc1)c1ccccc1 [Compound 51]
Completion: 5.82

Prompt: Continue with O=C(C(=O)N1CCC[C@H]1C(=O)OCc1ccccc1)c1ccccc1 [Compound 2]
Completion: 4.60

Prompt: Continue with C=CCOc1cccc(C(=O)C(=O)N2CCCC[C@H]2C(=O)OCc2ccccc2)c1 [Compound 65]
Completion: 6.00

Prompt: Continue with O=C(OCc1ccccc1)[C@@H]1CCCCN1C(=O)C(=O)C1(O)CCCCC1 [Compound 46]
Completion: 6.00

Prompt: Continue with O=C(Cc1ccccc1[N+](=O)[O-])C(=O)N1CCC[C@H]1C(=O)OCc1ccccc1 [Compound 27]
Completion: 4.59

Prompt: Continue with O=C(C(=O)N1CCC[C@H]1C(=O)OCc1ccccc1)c1ccccn1 [Compound 43]
Completion: 3.52

Prompt: Continue with COc1ccc(/C=C/C(=O)N2CCC[C@H]2C(=O)OCc2ccccc2)cc1 [Compound 111]
Completion: 5.22

Prompt: Continue with C=CC(=O)N1CCCC[C@H]1C(=O)OCc1ccccc1 [Compound 122]
Completion: 3.52

---

- test.target: FK-506 binding protein (FKBP) (Homo sapiens)
- Sequence (P62942 whole entry): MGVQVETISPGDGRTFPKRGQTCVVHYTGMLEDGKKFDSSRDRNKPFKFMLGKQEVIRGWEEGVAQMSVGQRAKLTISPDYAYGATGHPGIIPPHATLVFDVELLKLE
pKi: −log10 of the molar value.
Tick 1 (yes) if pKi is 5 or greater. Tick 0 (no) if pKi is less than 5.

Prompt: Test whether the compound COc1cccc(OC)c1C(=O)C(=O)N1CCCC[C@H]1C(=O)OCc1ccccc1 records pKi of 5 or higher.
Completion: 0 (no)

Prompt: Continue with C/C(=C\[C@H]1CC[C@H](O)CC1)COC(=O)[C@@H]1CCCCN1C(=O)C(=O)c1ccccc1
Completion: 1 (yes)

Prompt: Continue with COc1cc(C(=O)C(=O)N2CCCC[C@H]2C(=O)OCCCn2cnc3cncnc32)cc(OC)c1OC
Completion: 1 (yes)

Prompt: Continue with O=C(C(=O)N1CCCC[C@H]1C(=O)Oc1ccc2ccccc2c1)c1ccccc1
Completion: 1 (yes)

Prompt: Continue with O=C(OCCCc1ccccc1)[C@@H]1CCCCN1C(=O)C(=O)C1(F)CCCCC1
Completion: 1 (yes)

---

- Test system: PBLs stimulated with JVM human viral transformed B lymphoblastoid cells
- protocol.notes: MLR bioassay JVM: inhibition of proliferation in mixed lymphocyte reaction
- Assay type: cell-based
- condition.notes: Lymphoblastoid cell, pulsed on day 6, harvested 24 h later
Here, each record is paired with measured IC50 data.

Prompt: Form field - read-out: IC50; system: PBLs stimulated with JVM human viral transformed B lymphoblastoid cells; submitted item: O=C(C(=O)N1CCCC[C@H]1C(=O)OCc1ccccc1)c1ccc([N+](=O)[O-])cc1
Completion: > 10 µM

Prompt: Continue with COc1cc(C(=O)C(=O)N2CCCC[C@H]2C(=O)OCCCc2c[nH]c3ccccc23)cc(OC)c1OC
Completion: > 10 µM

Prompt: Continue with COc1cc(C(=O)C(=O)N2CCCC[C@H]2C(=O)OCCCCCc2ccccc2)cc(OC)c1OC
Completion: 9 µM

Prompt: Continue with CC(C)CC(=O)C(=O)N1CCCC[C@H]1C(=O)OCc1ccccc1
Completion: > 10 µM

---

- Test system: PBLs stimulated with JVM human viral transformed B lymphoblastoid cells
- protocol.notes: MLR bioassay JVM: inhibition of proliferation in mixed lymphocyte reaction
- Format: cell-based
- condition.notes: Lymphoblastoid cell, pulsed on day 6, harvested 24 h later
pIC50: −log10 of the molar value.
Here, each record is paired with measured pIC50 data.

// known answers, use as guide
Prompt: What does the data say about its pIC50? Entry: CCOc1cccc(C(=O)C(=O)N2CCCC[C@H]2C(=O)OCc2ccccc2)c1
Completion: < 5.00

Prompt: Continue with O=C(C(=O)N1CCCC[C@H]1C(=O)OCCCCc1ccccc1)c1ccc(I)cc1
Completion: < 5.00

Prompt: Continue with COc1cc(C(=O)C(=O)N2CCCC[C@H]2C(=O)OCCc2ccc3ccccc3c2)cc(OC)c1OC
Completion: < 5.00

Continuing:
Prompt: What does the data say about its pIC50? Entry: O=C(C(=O)N1CCCC[C@H]1C(=O)OCc1cccc(Oc2ccccc2)c1)c1ccccc1
Completion: < 5.00

Prompt: Continue with O=C(C(=O)N1CCCC[C@H]1C(=O)OCc1ccccc1)c1cccc(C(F)(F)F)c1
Completion: < 5.00

Prompt: Continue with CCCCOc1cccc(C(=O)C(=O)N2CCCC[C@H]2C(=O)OCCCc2ccccc2)c1
Completion: < 5.00

Prompt: Continue with O=C(C(=O)N1CCCC[C@H]1C(=O)OCCCc1ccccc1)C1=CCCCC1
Completion: < 5.00

Prompt: Continue with COc1cc(C(=O)C(=O)N2CCCC[C@H]2C(=O)OCCCCc2ccccc2)cc(OC)c1OC
Completion: 5.07

Prompt: Continue with COc1cc(C(=O)C(=O)N2CCCC[C@H]2C(=O)OCCCCc2ccc(I)cc2)cc(OC)c1OC
Completion: 5.15

Prompt: Continue with CCC(C)C(=O)C(=O)N1CCCC[C@H]1C(=O)OCc1ccccc1 (stereo partly drawn)
Completion: < 5.00

Prompt: Continue with COc1cc(C(=O)C(=O)N2CCCC[C@H]2C(=O)OCCCCc2c[nH]c3ccccc23)cc(OC)c1OC
Completion: 5.15

Prompt: Continue with COc1cc(C(=O)C(=O)N2CCCC[C@H]2C(=O)OCCCn2cnc3ccccc32)cc(OC)c1OC
Completion: < 5.00

Source of measurements: patent US5516797A
